# assayed_system: Muscarinic acetylcholine receptor M4 (Homo sapiens) (UniProt P08173)
# Sequence (P08173 whole entry): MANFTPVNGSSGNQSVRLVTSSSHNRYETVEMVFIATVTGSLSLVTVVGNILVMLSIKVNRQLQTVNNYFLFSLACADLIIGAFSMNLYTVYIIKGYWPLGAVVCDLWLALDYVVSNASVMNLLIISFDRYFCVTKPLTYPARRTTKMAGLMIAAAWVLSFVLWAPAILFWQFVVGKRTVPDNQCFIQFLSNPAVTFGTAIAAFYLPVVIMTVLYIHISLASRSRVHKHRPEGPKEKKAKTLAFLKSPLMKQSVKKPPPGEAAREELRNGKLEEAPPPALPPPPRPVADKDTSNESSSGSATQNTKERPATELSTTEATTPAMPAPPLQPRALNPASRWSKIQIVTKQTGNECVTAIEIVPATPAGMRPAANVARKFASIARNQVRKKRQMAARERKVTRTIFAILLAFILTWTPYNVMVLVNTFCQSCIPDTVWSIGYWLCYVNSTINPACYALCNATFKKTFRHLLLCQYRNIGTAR
# method_description: Logarithm of affinity (log 1/M) at the muscarinic acetylcholine receptor M4 by using semiquantitative equilibrium and off-rate assay
measure: Log 1/M

> print(dat)
                               record.smiles  numeric.result
 1  COc1cc2c3c4c(cc5c3n(c2cc1OC)C(=O)CC5)CCNC4             5.9
 2  COc1cc2c(c(OC)c1OC)c1c3c(cc4c1n2C(=O)CC4)CNCC3            5.97
 3  COc1ccc2c(c1)c1c3c(cc4c1n2C(=O)CC4)CNCC3             5.6
 4    COc1cccc2c1c1c3c(cc4c1n2C(=O)CC4)CNCC3            6.25
 5  COC(=O)c1cccc2c1c1c3c(cc4c1n2C(=O)CC4)CNCC3             5.6
 6     O=C1CCc2cc3c(c4c5c(O)cccc5n1c24)CCNC3             5.6
 7  COc1cc2c3c4c(cc5c3n(c2cc1OC)C(=O)CC5(C)C)CCNC4            6.67
 8  COC(=O)c1ccc2c3c4c(cc5c3n(c2c1)C(=O)CC5)CNCC4            5.04
 9  COc1ccc2c(c1)c1c3c(cc4c1n2C(=O)CC4)CCNC3            5.71
10  COC(=O)c1ccc2c(c1)c1c3c(cc4c1n2C(=O)CC4)CNCC3            5.55
11  COc1cccc2c3c4c(cc5c3n(c12)C(=O)CC5)CNCC4            5.97
12  COC(=O)c1c2c(c3c4cc(OC)c(OC)cc4n4c3c1CCC4=O)CCNC2            5.86
13     O=C1CCc2cc3c(c4c5ccc(O)cc5n1c24)CCNC3            5.38
14  O=C1CCc2cc3c(c4c5cc6c(cc5n1c24)OCO6)CCNC3            5.29
15  COc1ccc2c3c4c(cc5c3n(c2c1)C(=O)CC5)CNCC4            4.64
16  N#Cc1ccc2c3c4c(cc5c3n(c2c1)C(=O)CC5)CNCC4            5.85
17  O=C(O)c1ccc2c(c1)c1c3c(cc4c1n2C(=O)CC4)CNCC3            5.39
18  COc1cc2c3c4c(c(COC(C)=O)c5c3n(c2cc1OC)C(=O)CC5)CNCC4            5.91
19     O=C1CCc2cc3c(c4c5cccc(O)c5n1c24)CCNC3            5.43
20     O=C1CCc2cc3c(c4c5ccc(O)cc5n1c24)CNCC3            5.52
21    O=C1CCc2cc3c(c4c5cc(Cl)ccc5n1c24)CCNC3            5.61
22  COc1ccc2c3c4c(cc5c3n(c2c1)C(=O)CC5)CCNC4            5.68
23    O=C1CCc2cc3c(c4c5c(Cl)cccc5n1c24)CCNC3            6.26

---

# assayed_system: Muscarinic acetylcholine receptor M1 (Homo sapiens) (UniProt P11229)
# Sequence (P11229 whole entry): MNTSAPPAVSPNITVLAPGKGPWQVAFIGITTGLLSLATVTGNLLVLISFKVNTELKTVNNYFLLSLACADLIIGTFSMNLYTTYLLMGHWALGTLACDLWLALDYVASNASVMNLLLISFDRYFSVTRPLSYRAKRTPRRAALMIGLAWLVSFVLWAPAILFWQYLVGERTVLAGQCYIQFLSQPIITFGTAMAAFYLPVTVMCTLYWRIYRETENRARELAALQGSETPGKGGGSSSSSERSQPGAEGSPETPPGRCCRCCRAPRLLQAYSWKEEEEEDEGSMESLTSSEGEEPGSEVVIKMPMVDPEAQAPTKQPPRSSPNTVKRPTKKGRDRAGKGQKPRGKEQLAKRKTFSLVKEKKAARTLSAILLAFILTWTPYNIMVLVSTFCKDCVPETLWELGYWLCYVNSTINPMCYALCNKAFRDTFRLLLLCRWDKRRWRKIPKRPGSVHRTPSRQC
# method_description: Subtype selectivity and the cooperativity with N-methyl Scopolamine (NMS) at Muscarinic acetylcholine receptor M1
Entries annotated with measured Cooperativity

Previously resolved entries follow.
> print(dat)
                              record.smiles  result
1  COC(=O)c1ccc2c(c1)c1c3c(cc4c1n2C(=O)CC4)CNCC3   < 0.2
2  O=C(c1ccc2c(c1)c1c3c(cc4c1n2C(=O)CC4)CNCC3)N1CCOCC1   < 0.2
3     O=C1CCc2cc3c(c4c5cc(O)ccc5n1c24)CCNC3     > 3

Task: Would you mind telling me what Cooperativity value was observed for `O=C1CCc2cc3c(c4c5c(O)cccc5n1c24)CCNC3` ?
Output: > 3

---

# assayed_system: Muscarinic acetylcholine receptor M1 (Homo sapiens) (UniProt P11229)
# method_description: Logarithm of affinity (log 1/M) at the (N-methyl Scopolamine) NMS-liganded muscarinic acetylcholine receptor M1 by using semiquantitative equilibrium and off-rate assay
measure: Log 1/M

> print(dat)
                               record.smiles  numeric.result
 1    O=C1CCc2cc3c(c4c5ccc(Cl)cc5n1c24)CCNC3            6.51
 2  COc1cc2c(c(OC)c1OC)c1c3c(cc4c1n2C(=O)CC4)CNCC3            6.52
 3  COc1ccc2c3c4c(cc5c3n(c2c1)C(=O)CC5)CNCC4            6.07
 4  COC(=O)c1cccc2c1c1c3c(cc4c1n2C(=O)CC4)CNCC3            5.34
 5  COc1ccc2c3c4c(cc5c3n(c2c1)C(=O)CC5)CCNC4            6.17
 6     O=C1CCc2cc3c(c4c5c(O)cccc5n1c24)CCNC3            6.11
 7  CC1(C)CC(=O)n2c3ccccc3c3c4c(cc1c32)CCNC4            5.69
 8        O=C1CCc2cc3c(c4c5ccccc5n1c24)CCNC3            5.49
 9  COC(=O)c1c2c(c3c4cc(OC)c(OC)cc4n4c3c1CCC4=O)CCNC2            6.05
10  COc1cc2c3c4c(cc5c3n(c2cc1OC)C(=O)CC5)CNCC4            5.81
11        O=C1CCc2cc3c(c4c5ccccc5n1c24)CNCC3             5.7
12    O=C1CCc2cc3c(c4c5cc(Cl)ccc5n1c24)CCNC3            5.58
13     O=C1CCc2cc3c(c4c5ccc(O)cc5n1c24)CNCC3            6.13
14  COC(=O)c1ccc2c(c1)c1c3c(cc4c1n2C(=O)CC4)CCNC3            5.85
15    O=C1CCc2cc3c(c4c5c(Cl)cccc5n1c24)CCNC3            6.58
16     O=C1CCc2cc3c(c4c5cccc(O)c5n1c24)CCNC3            5.38
17  COc1cccc2c1c1c3c(cc4c1n2C(=O)CC4(C)C)CNCC3            5.54
18  O=C(O)c1ccc2c(c1)c1c3c(cc4c1n2C(=O)CC4)CNCC3            4.57
19   Cc1ccc2c(c1)c1c3c(cc4c1n2C(=O)CC4)CNCC3            5.69
20  O=C1CCc2cc3c(c4c5cc(CN6CCOCC6)ccc5n1c24)CCNC3            5.35
21  O=C1CCc2cc3c(c4c5cc6c(cc5n1c24)OCO6)CCNC3            5.99
22     O=C1CCc2cc3c(c4c5ccc(O)cc5n1c24)CCNC3            5.62
23  COC(=O)c1ccc2c(c1)c1c3c(cc4c1n2C(=O)CC4)CNCC3            5.62

---

# assayed_system: UniProtKB P08172
# Sequence (whole entry): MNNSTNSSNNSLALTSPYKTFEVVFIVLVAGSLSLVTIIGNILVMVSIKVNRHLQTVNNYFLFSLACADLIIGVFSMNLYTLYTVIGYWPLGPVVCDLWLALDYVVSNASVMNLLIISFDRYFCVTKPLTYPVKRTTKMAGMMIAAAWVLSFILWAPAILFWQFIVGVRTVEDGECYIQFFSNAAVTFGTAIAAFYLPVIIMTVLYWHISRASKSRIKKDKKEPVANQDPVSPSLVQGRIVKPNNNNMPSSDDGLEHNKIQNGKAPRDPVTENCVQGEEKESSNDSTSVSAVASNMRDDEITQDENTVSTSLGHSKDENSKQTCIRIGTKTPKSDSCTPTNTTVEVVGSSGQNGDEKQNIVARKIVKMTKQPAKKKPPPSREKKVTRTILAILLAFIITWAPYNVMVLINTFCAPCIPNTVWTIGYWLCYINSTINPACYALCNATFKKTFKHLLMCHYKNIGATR
# method_description: Subtype selectivity and the cooperativity with N-methyl Scopolamine (NMS) at Muscarinic acetylcholine receptor M2
Entries annotated with measured Cooperativity

Previously resolved entries follow.
> print(dat)
                              record.smiles  result
1    O=C1CCc2cc3c(c4c5c(Cl)cccc5n1c24)CCNC3     > 3
2  O=C(O)c1ccc2c(c1)c1c3c(cc4c1n2C(=O)CC4)CNCC3     > 3
3  COc1cc2c3c4c(cc5c3n(c2cc1OC)C(=O)CC5)CCNC4     > 3
4    O=C1CCc2cc3c(c4c5cc(Cl)ccc5n1c24)CCNC3     > 3
5     O=C1CCc2cc3c(c4c5cc(O)ccc5n1c24)CCNC3     > 3

Task: Under UniProtKB P08172: Cooperativity value of `O=C(c1ccc2c(c1)c1c3c(cc4c1n2C(=O)CC4)CNCC3)N1CCOCC1` ?
Output: > 3

Task: Continue with `COc1cc2c3c4c(c(COC(C)=O)c5c3n(c2cc1OC)C(=O)CC5)CNCC4`
Output: > 3

Task: Continue with `O=C1CCc2cc3c(c4c5c(O)cccc5n1c24)CCNC3`
Output: > 3
